Recorded values, source the Human Domainome abundance scans (Beltran et al. 2025).

B1: Ankyrin repeat and SOCS box protein 14, residues 532 to 572; numbered along this chain, A6NK59 (parent)
chain: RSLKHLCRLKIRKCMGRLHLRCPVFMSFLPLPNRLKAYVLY

Variants of: B1
Assay: abundance fitness (aPCA) (normalised: wild type 0, dead -1); higher = more abundant; growth selection in yeast, the domain comes from the species named
Details: Homo sapiens
abundance fitness of -0.05 or higher: YES. Under -0.05: NO.

- L6R: YES
- L20S: NO
- K36E: NO
- L20W: NO
- R12S: NO
- M26E: YES
- V24G: YES
- F28Q: YES
- M26A: NO
- I11K: NO
- C7N: NO
- K36T: NO
- L9C: YES
- L31G: NO
- C7E: NO
- L35V: NO
- K13P: NO
- G16H: YES
- K10H: NO
- L9I: YES
- R34V: NO
- L6T: YES
- M26H: YES
- R21S: NO
- R21M: YES
- R8Y: YES
- P32E: NO
- H19Y: NO
- C7W: YES
- L31E: NO
- C7H: NO
- P30S: YES
- S2I: YES
- M15F: NO
